- Species: Homo sapiens
- test details: Selectivity ratio of Ki for human His-tagged full length AURKAto Ki for GST-tagged full length ITK (unknown origin)
Parameter: Ratio Ki. Scope: all listed entries.
readout name: Ratio Ki

{"columns": ["compound", "numeric readout"],
 "data": [
  ["N#Cc1cccc(Cn2cc(NC(=O)c3n[nH]c4c3CC(c3cn[nH]c3)CC4)cn2)c1 (stereo not given)", 23],
  ["N#Cc1cccc(Cn2cc(NC(=O)c3n[nH]c4c3CCCC4)cn2)c1", 26],
  ["CC1(C)CCc2c(C(=O)Nc3cnn([C@@H](CCS(C)(=O)=O)c4ccccc4)c3)n[nH]c2C1", 340],
  ["N#Cc1cccc(Cn2cc(NC(=O)c3n[nH]c4c3CC(c3cn[nH]c3)CC4)cn2)c1 (racemic)", 25],
  ["N#Cc1cccc(Cn2cc(NC(=O)c3n[nH]c4ccccc34)cn2)c1", 20]
]}

Value source: ChEMBL document CHEMBL3297697
